- Measurement Notes: Plasmodium falciparum growth inhibition, primary screen, strain 3D7, DAPI fluorescence, 100 nL (AID 1184);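 further: parasites grown inside human red blood cells in medium with human serum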
- Measurement Parameters: P. falciparum 3D7 growth, 3 d, higher = more signal
Below, each entry is listed alongside its reported z-score.
Enter a number only.

# Structure Notation, Observed Value
rows = [
    ("CCN1C(C)=C(C(=O)OC)[C@@H](c2ccccc2)N2C(=O)[C@](O)(C(=O)OC)[C@@H](c3ccccc3)C(C(=O)c3ccccc3)=C12", 0.245),
    ("CCOC(=O)C1=CC[C@@H](c2ccccc2)N(S(=O)(=O)c2ccc(C)cc2)[C@H]1C", -1.5),
    ("COCCOC(=O)N1C(=O)[C@@]2(c3cc(C#CCCO)ccc31)[C@H](C(=O)N1CCCCCCC1)[C@H]1C(=O)O[C@H](c3ccccc3)[C@H](c3ccccc3)N1[C@@H]2c1ccc(O)cc1", -0.303),
]

For `COCCCNC(=O)[C@@H]1c2ccccc2C(=O)N(CC23CC4CC(CC(C4)C2)C3)[C@H]1c1ccc(CO)cc1` , what is its reported z-score?
-1.95

Name the recorded z-score for `CCOC(=O)C[C@H]1[C@H](OC(=O)c2ccccc2-c2ccccc2)[C@@H](NC(=O)c2ccc(-c3ccccc3)cc2)c2cc(OCCCO)ccc2N1C(=O)Cc1ccc(OC)cc1` .
0.561

I have this molecule here, `COC(=O)[C@@]1(Cc2ccc(OC)cc2)[C@H]2c3cc(C(=O)N(C)C)n(Cc4ccc(C)c(F)c4F)c3C[C@H]2CN1C(=O)c1ccccc1` , and I need its recorded z-score.
-1.13

Using the record for `COCCOC(=O)N1C(=O)[C@@]2(c3cc(C#CCC(C(=O)OC)C(=O)OC)ccc31)[C@H](C(=O)N1CCN(c3ncccn3)CC1)[C@H]1C(=O)O[C@H](c3ccccc3)[C@H](c3ccccc3)N1[C@@H]2c1ccc(O)cc1` , report its z-score.
-2.08

----------
- Tested on: Human papillomavirus type 1a E7 protein (residues 1-88)
- Measurement Notes: HPV1a E7 small-molecule binders, primary screen, biochemical, small-molecule microarray, residues 1-88, 635 nm (AID 1129)
- Measurement Parameters: small-molecule microarray binding, fluorescence 635 nm; higher = more signal
Measurement Kind: composite z-score
Reply with just the number.

# Molecule, Target System, composite z-score
rows = [
    ("O=C1OCCC=C[C@H]2OC34C=CCN(Cc5ccccc5)C(=O)[C@H]3N(CCO)C(=O)[C@@H]4C12 (stereo not given in full)", "Human papillomavirus type 1a E7 protein (residues 1-88)", -1.18),
    ("O=C1C[C@@](C(=O)NCCN2CCOCC2)(c2ccc([N+](=O)[O-])cc2)[C@@H](c2ccc(CO)cc2)N1C1CCCCC1", "Human papillomavirus type 1a E7 protein (residues 1-88)", 0.666),
    ("CO[C@@H]1COC(=O)CC=C[C@@H](C)[C@H](OC)COC(=O)CC=C[C@H]1C", "Human papillomavirus type 1a E7 protein (residues 1-88)", -1.31),
    ("C[C@]1(C(=O)NCCN2CCOCC2)c2ccccc2C(=O)N(Cc2ccccc2)[C@H]1c1ccc(CO)cc1", "Human papillomavirus type 1a E7 protein (residues 1-88)", -0.385),
    ("COc1ccc([Si](C)(C)[C@H]2[C@H](CCO)O[C@@]3(C(=O)N(Cc4ccccc4)c4ccc(N5C(=O)c6cccc7cccc5c67)cc43)[C@@H]2C)cc1", "Human papillomavirus type 1a E7 protein (residues 1-88)", -0.333),
]

# ---- query molecule ----
Sample `O=C(NCc1ccccc1)[C@@]1(Cc2ccccc2)COC(c2ccc(OCCCO)cc2)=N1` — what was its composite z-score?
1.17
